# Tested on: P. aeruginosa LESB58
# PROCEDURE DETAILS: In vitro synergy, checkerboard assay
# Type: cell-based, Pseudomonas aeruginosa
# CONDITION SET: MHB
Peptide text beside a SMILES is read from it.
// Fold decrease in other MIC, drug combined with CZA lookup, one value per entry
READOUT LABEL: Fold decrease in other MIC, drug combined with CZA

MOLECULE	DATA VALUE
C[C@H]1[C@H](NC(=O)/C(=N\OC(C)(C)C(=O)O)c2csc(N)n2)C(=O)N1S(=O)(=O)O [ATM, aztreonam]	4
CC[C@H](C)CCCCC(=O)N[C@@H](CCN)C(=O)N[C@H](C(=O)N[C@@H](CCN)C(=O)N[C@H]1CCNC(=O)[C@H]([C@@H](C)O)NC(=O)[C@H](CCN)NC(=O)[C@H](CCN)NC(=O)[C@H](CC(C)C)NC(=O)[C@@H](CC(C)C)NC(=O)[C@H](CCN)NC1=O)[C@@H](C)O [CST, colistin] (HELM PEPTIDE1{[CC[C@H](C)CCCCC(=O)[*:2]].[Dab].T.[Dab].[Dab].[Dab].[dL].L.[Dab].[Dab].T}$PEPTIDE1,PEPTIDE1,5:R3-11:R2$$$V2.0)	8
NC[C@H]1O[C@H](O[C@H]2[C@H](O)[C@@H](O[C@H]3O[C@H](CO)[C@@H](O)[C@H](N)[C@H]3O)[C@H](N)C[C@@H]2N)[C@H](N)C[C@@H]1O [TOB, tobramycin]	8
CNC(C)C1CCC(N)C(OC2C(N)CC(N)C(OC3OCC(C)(O)C(NC)C3O)C2O)O1 (centres unmarked) [GEN, gentamicin]	8
CN(C)c1cc(NC(=O)CNC(C)(C)C)c(O)c2c1C[C@H]1C[C@H]3[C@H](N(C)C)C(O)=C(C(N)=O)C(=O)[C@@]3(O)C(O)=C1C2=O [TGC, tigecycline]	8

----------
# Tested on: P. aeruginosa LESB58
# PROCEDURE DETAILS: microbe, parasite or virus in culture
# Type: cell-based, Pseudomonas aeruginosa
# CONDITION SET: Pseudomonas aeruginosa, LESB58, read-out: MIC in TCM, TCM (DMEM + 1% glucose + 5% FBS), 20-24 h
READOUT LABEL: MIC (µg/mL)

COMPOUND	READOUT LABEL	READOUT UNIT	RESULT QUALIFIER	DATA VALUE
C[C@H]1[C@H](NC(=O)/C(=N\OC(C)(C)C(=O)O)c2csc(N)n2)C(=O)N1S(=O)(=O)O [ATM, aztreonam]	MIC	µg/mL	=	500
CC(C)(O/N=C(\C(=O)N[C@@H]1C(=O)N2C(C(=O)[O-])=C(C[n+]3ccccc3)CS[C@H]12)c1csc(N)n1)C(=O)O [CAZ, ceftazidime]	MIC	µg/mL	=	125
CC[C@H]1OC(=O)[C@H](C)[C@@H](O[C@H]2C[C@@](C)(OC)[C@@H](O)[C@H](C)O2)[C@H](C)[C@@H](O[C@@H]2O[C@H](C)C[C@H](N(C)C)[C@H]2O)[C@](C)(O)C[C@@H](C)CN(C)[C@H](C)[C@@H](O)[C@]1(C)O [AZM, azithromycin]	MIC	µg/mL	=	0.625
CNC(C)C1CCC(N)C(OC2C(N)CC(N)C(OC3OCC(C)(O)C(NC)C3O)C2O)O1 (centres unmarked) [GEN, gentamicin]	MIC	µg/mL	=	500
CN(C)c1cc(NC(=O)CNC(C)(C)C)c(O)c2c1C[C@H]1C[C@H]3[C@H](N(C)C)C(O)=C(C(N)=O)C(=O)[C@@]3(O)C(O)=C1C2=O [TGC, tigecycline]	MIC	µg/mL	>	500
NC(=O)[C@@H]1CC[C@@H]2CN1C(=O)N2OS(=O)(=O)O [AVI, avibactam]	MIC	µg/mL	=	31.2
NC[C@H]1O[C@H](O[C@H]2[C@H](O)[C@@H](O[C@H]3O[C@H](CO)[C@@H](O)[C@H](N)[C@H]3O)[C@H](N)C[C@@H]2N)[C@H](N)C[C@@H]1O [TOB, tobramycin]	MIC	µg/mL	=	62.5
O=C(O)c1cn(C2CC2)c2cc(N3CCNCC3)c(F)cc2c1=O [CIP, ciprofloxacin]	MIC	µg/mL	=	50

Cited source for all entries: paper PMC11130353
